ASSAYED_TARGET: Aβ40 (Homo sapiens)
Construct: purchased AnaSpec; host or cells: synthetic peptide
Sequence (P05067 672-711 limits assumed): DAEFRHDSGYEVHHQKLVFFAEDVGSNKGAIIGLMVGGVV
ASSAY_DETAILS: ThT fluorescence assay of Aβ monomer aggregation
Format: biochemical
EXPERIMENTAL_CONTEXT: 100 µM compound, 40 μM Aβ40 monomer, 40 mM Tris-HCl pH 8.0, 25 °C; mean ± SEM, n = 3–5; N.E. = not significantly different from control samples

COMPOUND	Plateau Reduction (% Inhibition)
CN(C)Cc1nc(CSCCN2C(=O)c3cccc4cc([N+](=O)[O-])cc(c34)C2=O)cs1	61.4% ± 19.7%
CN(C)Cc1nc(CSCCN2C(=O)c3cccc4cccc(c34)C2=O)cs1	54.2% ± 5.1%
CC1CC(=O)N(CCSCc2ccc(CN(C)C)o2)C1=O (stereo not shown)	N.E.
CN(C)Cc1ccc(CSCCN2C(=O)c3ccccc3C2=O)o1	N.E.
